Attribution: PubChem BioAssay (NCI)

Tested on: COLO 205 colon
Experiment: NCI tumour cell line growth inhibition, 48 h
READOUT_KIND: TGI

CCC(CCCC[C@H]1CC[C@@H]2CC(=O)C[C@H]12)OC (stereo partly drawn) = > 100 µM

// for each compound below, give its TGI
1. COc1ccc(/C=C(\C#N)c2ccccn2)cc1OC
2. O=C1OCOC2(CCCC2)C1c1ccccc1 (stereo not drawn)
3. O=C1OCc2nc3c(c(-c4ccccc4C(F)(F)F)c21)C(=O)OC3

["> 100 µM", "> 100 µM", "> 100 µM"]

// for each compound below, give its TGI
1. CC1(C)OCC(/C=C\C(O)CC2(C)OCCO2)CO1 (stereo not drawn)
2. O=C1OC(c2ccccc2)=N/C1=C\c1ccccc1
3. COc1cc(OC)c(/C=C/S(=O)(=O)Cc2ccc(OC)c(N)n2)c(OC)c1

1: > 100 µM; 2: > 100 µM; 3: < 0.01 µM

// for each compound below, give its TGI
1. O=C1CC2(CCN(Cc3ccccc3)CC2)C(=O)N1N1CCCCC1
2. N#C/C(=C/c1ccc([N+](=O)[O-])o1)c1ccccc1
3. COc1cc2c(cc1C)NC(=O)/C2=C/c1c(Cl)[nH]c2ccccc12

> 100 µM
> 100 µM
13.1 µM
